Molecular target: ABCD2 WT (Homo sapiens, UniProt Q9UBJ2)
Sequence (Q9UBJ2 1-740): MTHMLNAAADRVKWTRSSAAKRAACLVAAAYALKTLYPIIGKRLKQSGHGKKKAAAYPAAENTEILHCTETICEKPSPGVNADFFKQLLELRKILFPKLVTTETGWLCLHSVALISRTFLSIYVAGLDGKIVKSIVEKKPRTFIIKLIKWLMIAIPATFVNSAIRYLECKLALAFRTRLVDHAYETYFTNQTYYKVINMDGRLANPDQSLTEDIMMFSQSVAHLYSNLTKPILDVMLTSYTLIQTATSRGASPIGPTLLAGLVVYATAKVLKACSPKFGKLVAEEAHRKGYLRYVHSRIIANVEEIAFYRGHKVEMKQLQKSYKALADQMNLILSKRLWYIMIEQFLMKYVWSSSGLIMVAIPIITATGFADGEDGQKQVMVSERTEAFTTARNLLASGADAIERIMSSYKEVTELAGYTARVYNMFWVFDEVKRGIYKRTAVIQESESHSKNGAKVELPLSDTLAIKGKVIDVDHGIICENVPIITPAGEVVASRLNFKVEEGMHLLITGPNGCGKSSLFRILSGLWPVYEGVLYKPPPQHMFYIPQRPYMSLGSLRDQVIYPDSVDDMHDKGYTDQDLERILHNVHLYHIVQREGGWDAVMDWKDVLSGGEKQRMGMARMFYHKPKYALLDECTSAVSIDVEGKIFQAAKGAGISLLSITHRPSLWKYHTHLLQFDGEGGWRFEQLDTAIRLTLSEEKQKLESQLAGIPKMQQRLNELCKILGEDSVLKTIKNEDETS
Experiment: D2 correction dose-response assay: ABCD2 WT HiBit protein expression
Details: HEK-293/ABCD2 WT cells, 24 hours treatment, HiBit luminescence; class combines EC50 and Mean MaxAct (fold); read-out: ABCD2 WT EC50, Emax
REPORTED PROPERTY: EC50

Worked cases, answers included:
{"COMPOUND": "Cc1cc(C)c(Oc2nc(-c3cnc(C#N)c(Cl)c3)ccc2NS(C)(=O)=O)c(C)c1 [Compound I-36]", "SYSTEM UNDER TEST": "ABCD2 WT (Homo sapiens, UniProt Q9UBJ2)", "ASSAY VALUE": "< 1000 nM"}
{"COMPOUND": "CCS(=O)(=O)Nc1ccc(-c2cncc(C#N)c2)nc1Oc1c(C)cc(C)nc1C [Compound I-247]", "SYSTEM UNDER TEST": "ABCD2 WT (Homo sapiens, UniProt Q9UBJ2)", "ASSAY VALUE": "> 25000 nM"}
{"COMPOUND": "Cc1cc(C)c(Oc2nc(-n3cc(C)cn3)ccc2NS(C)(=O)=O)c(C)c1 [Compound I-11]", "SYSTEM UNDER TEST": "ABCD2 WT (Homo sapiens, UniProt Q9UBJ2)", "ASSAY VALUE": "1000 to 10000 nM"}
{"COMPOUND": "Cc1cc(C)c(Oc2nc(-c3cncc(Cl)c3)ccc2NS(=O)(=O)Cc2ccccc2)c(C)c1 [Compound I-65]", "SYSTEM UNDER TEST": "ABCD2 WT (Homo sapiens, UniProt Q9UBJ2)", "ASSAY VALUE": "> 25000 nM"}
{"COMPOUND": "CNS(=O)(=O)c1ccc(-c2cncc(C#N)c2)nc1Oc1c(C)cc(C)cc1C [Compound I-281]", "SYSTEM UNDER TEST": "ABCD2 WT (Homo sapiens, UniProt Q9UBJ2)", "ASSAY VALUE": "< 1000 nM"}

# context switch: different compound, same EC50
# input Report EC50 for CNS(=O)(=O)c1ccc(-c2cncc(C#N)c2)nc1Oc1c(C)nc(C(F)(F)F)nc1C [Compound I-167] tested on ABCD2 WT (Homo sapiens, UniProt Q9UBJ2).
# output 1000 to 10000 nM
